assayed_system: human TMEM16A (TMEM16Aabc variant) (Homo sapiens, UniProt Q5XXA6, DEL476-501, form not given)
Sequence (Q5XXA6 with tags, fused parts or gaps DEL476-501): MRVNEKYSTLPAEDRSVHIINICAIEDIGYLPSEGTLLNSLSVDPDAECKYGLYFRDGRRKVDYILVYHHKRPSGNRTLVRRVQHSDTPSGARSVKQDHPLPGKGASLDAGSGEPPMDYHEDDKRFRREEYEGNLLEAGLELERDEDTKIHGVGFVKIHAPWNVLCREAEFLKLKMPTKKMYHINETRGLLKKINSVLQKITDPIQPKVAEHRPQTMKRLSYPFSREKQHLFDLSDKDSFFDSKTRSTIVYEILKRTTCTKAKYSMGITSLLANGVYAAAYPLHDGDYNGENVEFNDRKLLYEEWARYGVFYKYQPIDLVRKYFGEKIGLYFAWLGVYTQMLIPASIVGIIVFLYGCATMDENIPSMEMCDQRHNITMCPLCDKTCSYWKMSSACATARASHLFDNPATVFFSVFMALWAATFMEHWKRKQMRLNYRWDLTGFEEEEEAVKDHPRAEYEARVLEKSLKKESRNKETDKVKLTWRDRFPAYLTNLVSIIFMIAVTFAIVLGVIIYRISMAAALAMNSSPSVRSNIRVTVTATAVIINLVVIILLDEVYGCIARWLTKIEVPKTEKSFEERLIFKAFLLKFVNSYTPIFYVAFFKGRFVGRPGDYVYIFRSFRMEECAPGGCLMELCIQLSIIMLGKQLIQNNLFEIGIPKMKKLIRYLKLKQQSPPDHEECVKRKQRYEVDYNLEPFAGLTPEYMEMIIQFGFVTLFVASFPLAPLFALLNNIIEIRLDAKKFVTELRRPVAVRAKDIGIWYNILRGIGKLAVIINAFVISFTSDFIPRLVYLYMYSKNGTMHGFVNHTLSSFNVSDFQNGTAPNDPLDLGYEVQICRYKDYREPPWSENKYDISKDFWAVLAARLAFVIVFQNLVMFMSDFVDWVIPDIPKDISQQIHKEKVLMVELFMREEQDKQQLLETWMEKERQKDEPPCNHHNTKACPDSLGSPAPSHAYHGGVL
experimental_protocol: Automated whole-cell patch clamp (Qpatch) TMEM16A potentiator assay in FRT cells stably expressing human TMEM16A
Format: cell-based
condition_info: 3.33 μM solution of test compound; percentage increase of baseline TMEM16A current
measurement_type: % Potentiation @ 3.33 μM Avg (%)

- molecule: "CC(C)(C)NC(=O)c1cc(NC(=O)Cc2cc(O)cc(Cl)c2)ccn1 [Example 3.17b]"
  recorded_value: 227
- molecule: "CC(C)(C)NC(=O)c1cccc(NC(=O)Cc2cc(Cl)ccc2O)c1"
  recorded_value: 262
- molecule: "Cc1ccccc1CC(=O)Nc1ccnc(C(=O)NC(C)(C)C)c1"
  recorded_value: 131
- molecule: "COCCC(C)(C)NC(=O)c1cc(NC(=O)Cc2cc(Cl)ccc2O)ccn1"
  recorded_value: 195
- molecule: "O=C(Cc1cc(Cl)ccc1O)Nc1ccnc(C(=O)NC2(CCO)CCOCC2)c1"
  recorded_value: 143
- molecule: "CC(C)(C)NC(=O)c1cc(NC(=O)Cc2ccc(C(F)(F)F)cc2O)ccn1"
  recorded_value: 160
- molecule: "O=C(Cc1cc(Cl)ccc1O)Nc1ccnc(C(=O)NCc2ccccc2O)c1"
  recorded_value: 177
- molecule: "CC(C)(C)NC(=O)c1cccc(NC(=O)Cc2cccc(O)c2)c1"
  recorded_value: 96
- molecule: "CC(C)(C)NC(=O)c1cc(NC(=O)Cc2cc(CCCO)ccc2O)ccn1"
  recorded_value: 34

* * *

assayed_system: human TMEM16A (TMEM16Aabc variant) (Homo sapiens, UniProt Q5XXA6, DEL476-501, form not given)
experimental_protocol: Automated whole-cell patch clamp (Qpatch) TMEM16A potentiator assay in FRT cells stably expressing human TMEM16A
Assay type: cell-based
condition_info: 3.33 μM solution of test compound; percentage increase of baseline TMEM16A current
For each record, check the reported % Potentiation @ 3.33 μM Avg: if it is below 200% write YES, else write NO.

- compound: "CC(C)(C)NC(=O)c1cc(NC(=O)Cc2cc(Cl)ccc2O)ccc1O [Example 11]"
  class_assignment: "YES"
- compound: "CC(C)(C)NC(=O)c1cc(NC(=O)Cc2ccc3ccccc3c2)ccn1 [Example 5.24]"
  class_assignment: "YES"
- compound: "CC(C)(C)NC(=O)c1cccc(NC(=O)Cc2cc(Br)ccc2O)c1 [Example 2.10]"
  class_assignment: "YES"
- compound: "CCC(C)(C)NC(=O)c1cccc(NC(=O)Cc2ccccc2O)c1 [Example 1.1]"
  class_assignment: "YES"
- compound: "CC(C)(NC(=O)c1cc(NC(=O)Cc2cc(Cl)ccc2O)ccn1)c1ccccc1 [Example 94]"
  class_assignment: "NO"
- compound: "C#CC(C)(C)NC(=O)c1cc(NC(=O)Cc2ccncc2Cl)ccn1 [Example 22.3]"
  class_assignment: "YES"

* * *

assayed_system: human TMEM16A (TMEM16Aabc variant) (Homo sapiens, UniProt Q5XXA6, DEL476-501, form not given)
experimental_protocol: Automated whole-cell patch clamp (Qpatch) TMEM16A potentiator assay in FRT cells stably expressing human TMEM16A
Type: cell-based
condition_info: 3.33 μM solution of test compound; percentage increase of baseline TMEM16A current
Measured % Potentiation @ 3.33 μM Avg values are reported for all entries that follow.

- compound: "C#CC(C)(C)NC(=O)c1cc(NC(=O)Cc2ccc(Cl)cc2O)ccn1"
  % Potentiation @ 3.33 μM Avg: "98%"
- compound: "CCC(C)(C)NC(=O)c1cccc(NC(=O)Cc2ccc(F)cc2O)c1"
  % Potentiation @ 3.33 μM Avg: "126%"
- compound: "COc1ccccc1CNC(=O)Nc1ccnc(C(=O)NC(C)(C)C)c1"
  % Potentiation @ 3.33 μM Avg: "75%"
- compound: "Cc1noc(-c2ccccc2C(=O)Nc2ccnc(C(=O)NC(C)(C)C#N)c2)n1"
  % Potentiation @ 3.33 μM Avg: "-11%"
- compound: "O=C(Cc1cc(Cl)ccc1O)Nc1cccc(C(=O)NC2CCOCC2)c1"
  % Potentiation @ 3.33 μM Avg: "52%"
- compound: "CC(C)(C)NC(=O)c1cc(NC(=O)Cc2cccc(O)c2)ccn1 [Example 3.12b]"
  % Potentiation @ 3.33 μM Avg: "143%"
- compound: "CC(C)(C)NC(=O)c1cc(NC(=O)Cc2cccc(Cl)c2)ccn1"
  % Potentiation @ 3.33 μM Avg: "132%"
- compound: "CC(C)(C)NC(=O)c1cc(NC(=O)Cc2ccc3nccnc3c2)ccn1"
  % Potentiation @ 3.33 μM Avg: "144%"
- compound: "O=C(Cc1cc(F)ccc1O)Nc1ccnc(C(=O)NC2(CO)CCC2)c1"
  % Potentiation @ 3.33 μM Avg: "74%"
- compound: "O=C(Cc1cc(F)ccc1O)Nc1ccnc(C(=O)NC2(CO)CCOC2)c1 (centres unmarked)"
  % Potentiation @ 3.33 μM Avg: "53%"
- compound: "CC(C)(C#N)NC(=O)c1cc(NC(=O)CC2CCC(F)(F)CC2)ccn1"
  % Potentiation @ 3.33 μM Avg: "62%"
- compound: "O=C(Cc1cc(Cl)ccc1O)Nc1ccnc(C(=O)N[C@@H]2CCC[C@H]2O)c1"
  % Potentiation @ 3.33 μM Avg: "245%"
- compound: "CC(C)(C)NC(=O)c1cc(NC(=O)Cc2cc(Cl)c(CN3CCC(F)(F)C3)cc2O)ccn1"
  % Potentiation @ 3.33 μM Avg: "166%"
- compound: "CC(C)(C)NC(=O)c1cccc(NC(=O)Cc2ccc(F)cc2O)c1"
  % Potentiation @ 3.33 μM Avg: "203%"
